# tgt: Mammalian DNA-PK (Homo sapiens)
# protocol: DNA-PK inhibition assay (ELISA of p53 Ser15 phosphorylation of GST-p53N66)
# Format: biochemical, Mammalian (isolated from HeLa cell nuclear extract)
# measurement_conditions: DNA-PK from HeLa nuclear extract; mean value; read-out: mean IC50
Note to self: IC50 under 300 nM means 1 (yes), ties and anything higher get 0 (no).

The examples below pair each entry with its known result.
CN(C)[C@@H]1CCN(Cc2ccc(-c3cccc4c(=O)cc(N5CCOCC5)oc34)c3sc4ccccc4c23)C1 [4bv]    1 (yes)
O=c1cc(N2CCOCC2)oc2c(-c3ccc(CNCc4ccncc4)c4c3sc3ccccc34)cccc12 [4cg]    1 (yes)
CN(C)CCN(C)Cc1ccc(-c2cccc3c(=O)cc(N4CCOCC4)oc23)c2sc3ccccc3c12 [4u]    1 (yes)
Cc1n[nH]c(NCc2ccc(-c3cccc4c(=O)cc(N5CCOCC5)oc34)c3sc4ccccc4c23)n1 [4bi]    1 (yes)
C=CCNCc1ccc(-c2cccc3c(=O)cc(N4CCOCC4)oc23)c2sc3ccccc3c12 [4i]    0 (no)
NC1CCCN(Cc2ccc(-c3cccc4c(=O)cc(N5CCOCC5)oc34)c3sc4ccccc4c23)C1 (centres unmarked) [4cq]    1 (yes)
O=c1cc(N2CCOCC2)oc2c(-c3ccc(CNn4cnnc4)c4c3sc3ccccc34)cccc12 [4cp]    1 (yes)
CN(Cc1ccc(-c2cccc3c(=O)cc(N4CCOCC4)oc23)c2sc3ccccc3c12)Cc1ccnn1C [4cc]    0 (no)
O=c1cc(N2CCOCC2)oc2c(-c3ccc(CNCCc4ccccn4)c4c3sc3ccccc34)cccc12 [4aw]    1 (yes)
C[C@H]1COCCN1Cc1ccc(-c2cccc3c(=O)cc(N4CCOCC4)oc23)c2sc3ccccc3c12 [4aj]    0 (no)

IC50 under 300 nM? Item: CN1CCC(NCc2ccc(-c3cccc4c(=O)cc(N5CCOCC5)oc34)c3sc4ccccc4c23)CC1 [4cl]
1 (yes)

###

# tgt: Mammalian DNA-PK (Homo sapiens, UniProt P78527)
# protocol: DNA-PK inhibition assay (ELISA of p53 Ser15 phosphorylation of GST-p53N66)
# Type: biochemical, Mammalian (isolated from HeLa cell nuclear extract)
# measurement_conditions: DNA-PK from HeLa nuclear extract; mean value; read-out: mean IC50
For each of the molecules below, state its pIC50.
Give bare numbers, as −log10 of the molar value.

O=c1cc(N2CCOCC2)oc2c(-c3ccc(CNCc4nccs4)c4c3sc3ccccc34)cccc12 [4cj]    6.71

For every item in the list below, what is its measured pIC50?
1. O=c1cc(N2CCOCC2)oc2c(-c3ccc(CN4CCSC4)c4c3sc3ccccc34)cccc12 [4bq]
2. CN(C)CCNCc1ccc(-c2cccc3c(=O)cc(N4CCOCC4)oc23)c2sc3ccccc3c12 [4d]
3. O=c1cc(N2CCOCC2)oc2c(-c3ccc(CN4CCCCC4)c4c3sc3ccccc34)cccc12 [4cs]
4. O=c1cc(N2CCOCC2)oc2c(-c3ccc(CN4CCC(F)(F)C4)c4c3sc3ccccc34)cccc12 [4ca]

1. 6.36
2. 7.90
3. 6.05
4. 6.00

I have 5 molecules here; please give me pIC50 for each one.
1. CN1CCCCC1CNCc1ccc(-c2cccc3c(=O)cc(N4CCOCC4)oc23)c2sc3ccccc3c12 (stereo not shown) [4bc]
2. CN(CC(=O)O)Cc1ccc(-c2cccc3c(=O)cc(N4CCOCC4)oc23)c2sc3ccccc3c12 [4ac]
3. CCN1CCCC1CNCc1ccc(-c2cccc3c(=O)cc(N4CCOCC4)oc23)c2sc3ccccc3c12 (stereo not shown) [4cn]
4. O=c1cc(N2CCOCC2)oc2c(-c3ccc(CN4CCNCC4)c4c3sc3ccccc34)cccc12 [4k]
5. CN1CCCC1CCNCc1ccc(-c2cccc3c(=O)cc(N4CCOCC4)oc23)c2sc3ccccc3c12 (stereo not shown) [4av]

1. 7.98
2. 6.62
3. 7.24
4. 8.15
5. 7.31

The following molecules each have a reported value; give each one's pIC50.
1. O=c1cc(N2CCOCC2)oc2c(-c3ccc(CN4CCC(O)C4)c4c3sc3ccccc34)cccc12 (stereo not shown) [4l]
2. CC1CC(C)CN(Cc2ccc(-c3cccc4c(=O)cc(N5CCOCC5)oc34)c3sc4ccccc4c23)C1 (stereo not shown) [4an]

[7.52, 5.82]

Provide the reported pIC50 of each entry below, same order.
1. O=c1cc(N2CCOCC2)oc2c(-c3ccc(CNCC4CCCO4)c4c3sc3ccccc34)cccc12 (stereo not shown) [4a]
2. CC(C)N1CCN(Cc2ccc(-c3cccc4c(=O)cc(N5CCOCC5)oc34)c3sc4ccccc4c23)CC1 [4aa]
3. O=c1cc(N2CCOCC2)oc2c(-c3ccc(CN4CCC(CO)CC4)c4c3sc3ccccc34)cccc12 [4p]
4. O=c1cc(N2CCOCC2)oc2c(-c3ccc(CNCc4ccccc4)c4c3sc3ccccc34)cccc12 [4b]
5. CC(NCc1ccc(-c2cccc3c(=O)cc(N4CCOCC4)oc23)c2sc3ccccc3c12)c1nccs1 (stereo not shown) [4bb]
6. Cn1nccc1CNCc1ccc(-c2cccc3c(=O)cc(N4CCOCC4)oc23)c2sc3ccccc3c12 [4bl]

1: 7.51; 2: 8.76; 3: 7.02; 4: 6.61; 5: 6.11; 6: 7.34

###

# tgt: Mammalian DNA-PK (Homo sapiens)
# protocol: DNA-PK inhibition assay (ELISA of p53 Ser15 phosphorylation of GST-p53N66)
# Format: biochemical, Mammalian (isolated from HeLa cell nuclear extract)
# measurement_conditions: DNA-PK from HeLa nuclear extract; mean value; read-out: mean IC50
I'd be grateful if you could share measured log10 IC50 for these entries.
All values: log10 IC50 [nM].

// solved cases for log10 IC50 follow
CN(Cc1ccccc1)Cc1ccc(-c2cccc3c(=O)cc(N4CCOCC4)oc23)c2sc3ccccc3c12 [4s]    2.97
O=c1cc(N2CCOCC2)oc2c(-c3ccc(CNC4CCS(=O)(=O)C4)c4c3sc3ccccc34)cccc12 (stereo not drawn) [4bd]    2.10
O=c1cc(N2CCOCC2)oc2c(-c3ccc(CN4CCCC(F)(F)C4)c4c3sc3ccccc34)cccc12 [4az]    3.31
CC1CN(Cc2ccc(-c3cccc4c(=O)cc(N5CCOCC5)oc34)c3sc4ccccc4c23)CCN1C (stereo not drawn) [4cb]    0.57
COCC1CCCN1Cc1ccc(-c2cccc3c(=O)cc(N4CCOCC4)oc23)c2sc3ccccc3c12 (stereo not drawn) [4at]    2.95

Proceeding to the next compound to report its log10 IC50.
Which measured log10 IC50 value corresponds to COC[C@H]1CCCN1Cc1ccc(-c2cccc3c(=O)cc(N4CCOCC4)oc23)c2sc3ccccc3c12 [4bf] ?
2.86

###

Hi there, I'd appreciate the recorded IC50 for every entry that follows.
# tgt: Mammalian DNA-PK (Homo sapiens, UniProt P78527)
# protocol: DNA-PK inhibition assay (ELISA of p53 Ser15 phosphorylation of GST-p53N66)
# Type: biochemical, Mammalian (isolated from HeLa cell nuclear extract)
# measurement_conditions: DNA-PK from HeLa nuclear extract; mean value; read-out: mean IC50
One number for each entry, in nM.

O=c1cc(N2CCOCC2)oc2c(-c3ccc(CNCc4ccccn4)c4c3sc3ccccc34)cccc12    177
O=c1cc(N2CCOCC2)oc2c(-c3ccc(CNCCCN4CCCC4)c4c3sc3ccccc34)cccc12    17.3
COc1ccc(N2CCN(Cc3ccc(-c4cccc5c(=O)cc(N6CCOCC6)oc45)c4sc5ccccc5c34)CC2C)cc1 (stereo not shown)    502
O=c1cc(N2CCOCC2)oc2c(-c3ccc(CNCCCn4ccnc4)c4c3sc3ccccc34)cccc12    26.5

Would you mind listing IC50 for each of the following compounds?
1. COC1CCN(Cc2ccc(-c3cccc4c(=O)cc(N5CCOCC5)oc34)c3sc4ccccc4c23)CC1
2. CN1CCN(Cc2ccc(-c3cccc4c(=O)cc(N5CCOCC5)oc34)c3sc4ccccc4c23)CC1
3. CN(Cc1ccc(-c2cccc3c(=O)cc(N4CCOCC4)oc23)c2sc3ccccc3c12)Cc1cncn1C

[415, 1.31, 68.4]

Answer for every listed entry: what is its IC50? The entries follow.
1. CN(C)[C@H]1CCN(Cc2ccc(-c3cccc4c(=O)cc(N5CCOCC5)oc34)c3sc4ccccc4c23)C1
2. O=c1cc(N2CCOCC2)oc2c(-c3ccc(CN4CCC(C(F)(F)F)CC4)c4c3sc3ccccc34)cccc12
3. O=c1cc(N2CCOCC2)oc2c(-c3ccc(CNC4=NCCS4)c4c3sc3ccccc34)cccc12

[1.32, 5430, 174]
